biological target: EGFR L858R/C797S (Homo sapiens, UniProt P00533, C797S/L858R); assay: Biochemical EGFR kinase assay (Lance Ultra TR-FRET), double mutant L858R/C797S; details: ATP at Km; read-out: IC50 L858R/C797S, Km ATP
Sequence (P00533 25-1210 C797S/L858R): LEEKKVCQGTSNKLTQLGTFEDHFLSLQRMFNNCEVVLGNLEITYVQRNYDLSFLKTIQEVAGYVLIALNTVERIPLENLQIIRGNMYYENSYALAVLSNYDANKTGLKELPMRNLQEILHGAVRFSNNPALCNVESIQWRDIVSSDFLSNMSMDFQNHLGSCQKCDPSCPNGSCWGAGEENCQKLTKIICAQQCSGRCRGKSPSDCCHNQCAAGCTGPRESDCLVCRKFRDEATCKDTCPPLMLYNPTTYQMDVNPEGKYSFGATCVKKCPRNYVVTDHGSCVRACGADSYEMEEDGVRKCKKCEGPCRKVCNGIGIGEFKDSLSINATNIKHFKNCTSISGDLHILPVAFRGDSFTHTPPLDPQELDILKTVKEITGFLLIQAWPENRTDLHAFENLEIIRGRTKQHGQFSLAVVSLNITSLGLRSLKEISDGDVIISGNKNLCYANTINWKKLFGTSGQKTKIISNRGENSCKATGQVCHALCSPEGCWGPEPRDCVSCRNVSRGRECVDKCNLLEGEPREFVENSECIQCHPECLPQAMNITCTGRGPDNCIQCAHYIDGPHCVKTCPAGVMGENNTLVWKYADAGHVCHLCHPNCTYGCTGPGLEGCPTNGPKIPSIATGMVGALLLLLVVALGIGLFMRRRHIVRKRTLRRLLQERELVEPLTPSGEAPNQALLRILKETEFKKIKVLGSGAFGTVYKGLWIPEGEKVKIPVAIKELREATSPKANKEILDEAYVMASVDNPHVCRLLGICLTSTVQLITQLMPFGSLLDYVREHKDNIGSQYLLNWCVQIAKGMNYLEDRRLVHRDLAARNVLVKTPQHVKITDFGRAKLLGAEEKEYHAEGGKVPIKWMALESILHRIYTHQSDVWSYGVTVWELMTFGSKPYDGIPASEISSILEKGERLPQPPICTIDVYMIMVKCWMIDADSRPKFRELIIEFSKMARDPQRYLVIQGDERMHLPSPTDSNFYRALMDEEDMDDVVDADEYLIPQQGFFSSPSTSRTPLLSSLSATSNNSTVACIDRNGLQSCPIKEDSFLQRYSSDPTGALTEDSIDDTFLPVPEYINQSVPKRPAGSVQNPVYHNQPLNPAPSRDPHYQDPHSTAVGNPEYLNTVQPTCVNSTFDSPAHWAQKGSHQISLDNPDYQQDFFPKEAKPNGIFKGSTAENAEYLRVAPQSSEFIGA
Labelling field: enter 1.0 if recorded IC50 is less than 0.4 nM. Enter 0.0 if it equals or exceeds that cut-off.

> print(dat)
                                    molecule  category
 1  O=S(=O)(C1CC1)n1cc(-c2nccc(Nc3cc(N[C@H]4CCC[C@H](CO)C4)c(-c4ccc(C(O)C(F)(F)F)cn4)cn3)n2)cn1 (stereo partly drawn)       0.0
 2  CN1CCN(C(=O)c2ccc(-c3cnc(Nc4ccnc(-c5cnn(S(=O)(=O)C6CC6)c5)n4)cc3N[C@H]3CC[C@@H](CN(C)C)CC3)nc2)CC1       1.0
 3  CC(O)(c1ccc(-c2cnc(Nc3ccnc(-c4cnn(S(=O)(=O)C5CC5)c4)n3)cc2N[C@H]2CCC[C@H](CO)C2)nc1)C(F)(F)F (stereo partly drawn)       0.0
 4  CC(C)Nc1cc(Nc2ccnc(-c3cnn(S(=O)(=O)C4CC4)c3)n2)ncc1-c1ccc(C(C)(O)C(F)(F)F)cn1 (stereo not drawn)       0.0
 5  C[C@]1(O)CC[C@@H](Nc2cc(Nc3ccnc(-c4cnn(S(=O)(=O)C5CC5)c4)n3)ncc2-c2ccc(CC(F)(F)F)cn2)CC1       0.0
 6  C[C@]1(O)CC[C@@H](Nc2cc(Nc3ccnc(-c4cnn(S(=O)(=O)C5CC5)c4)n3)ncc2-c2ccc(C(F)(F)F)c(F)n2)CC1       0.0
 7  CC(O)(c1ccc(-c2cnc(Nc3ccnc(-c4cnn(S(=O)(=O)C5CC5)c4)n3)cc2NC2CCC(F)CC2)nc1)C(F)(F)F (stereo not drawn) [Example 266]       0.0
 8  CN1CCC(Oc2ccc(-c3cnc(Nc4ccnc(-c5cnn(S(=O)(=O)C6CC6)c5)n4)cc3NC3CCC(F)(CO)CC3)nc2)CC1 (stereo not drawn)       1.0
 9  C[C@]1(O)CC[C@@H](Nc2cc(Nc3ccnc(-c4cnn(S(=O)(=O)C5CC5)c4)n3)ncc2-c2ccc(OC(F)(F)F)cn2)CC1       0.0
10  CC(C)(O)c1ccc(-c2cnc(Nc3ccnc(-c4cnn(S(=O)(=O)C5CC5)c4)n3)cc2NC2CCCN(CCF)C2)nc1 (stereo not drawn)       0.0
11  CN1CCN(C(=O)c2ccc(-c3cnc(Nc4ccnc(-c5cnn(S(=O)(=O)C6CC6)c5)n4)cc3N[C@H]3CC[C@@](C)(O)CC3)nc2)CC1       1.0
12  C[C@]1(O)CC[C@@H](Nc2cc(Nc3ccnc(-c4cnn(S(=O)(=O)C5CC5)c4)n3)ncc2-c2cccc(NCCO)n2)CC1       0.0
13  CN(C)S(=O)(=O)c1ccc(-c2cnc(Nc3ccnc(-c4cnn(S(=O)(=O)C5CC5)c4)n3)cc2N[C@H]2CC[C@@H](C(C)(C)O)CC2)nc1       0.0
